protocol: in vitro
measurement parameters: chlorocebus sabaeus, Vero cells
property measured: CC50 at 120 h (µM)
Give the value in µM but do not write µM after it.

Request the reported CC50 at 120 h associated with CCNc1nc(C)cc(N2CCN(C(=O)c3ccc(Cl)cc3)CC2)n1
202
